- Tested on: EKVX NSCLC
- test.description: NCI tumour cell line growth inhibition, 48 h; in the data active = GI50 below about 0.43 µM; inactive = the rest
Pick from active, inactive when you respond.

Cc1[nH]c2ccc(F)cc2c1-c1nc2c3cccnc3c3ncccc3c2[nH]1 | active
C[C@]12CC[C@@H]3c4ccc(O)cc4CC[C@H]3[C@@H]1Cc1cnc(N)nc12 | inactive
CC(=O)O[C@H]1CCC2[C@@H]3CCC4c5nonc5CC[C@]4(C)C3CC[C@@]21C (stereo not given in full) | inactive
Nc1ccccc1C#C/C=C\C#Cc1cccc(O)c1 | inactive

We now examine a further compound.
Request: Name the outcome recorded for Cn1cc(-c2csc(-c3cn(CCCN4CCCCC4)c4ccccc34)n2)c2cccnc21 in the assay.
Result: inactive

----------
Examples of compounds with documented TGI follow.
- Test system: HCT-15 colon
- test.description: NCI tumour cell line growth inhibition, 48 h

Recorded results for 5 compounds are shown here.
CC(=O)CC1=C(OC(C)C)C2(OCCO2)C1O (centres undefined) | > 100 µM
CC1=C(CCC(C)NCc2ccc(OCCCN3CCCCC3)cc2)C(C)(C)CCC1 (centres undefined) | 2.03 µM
COc1cc(OC)c(C(=O)/C=C/c2cccc(C#N)c2)c(OC)c1 | 3.02 µM
Cc1ccc(C(=O)NC2CCC2)cc1-c1ccc(C(=O)NCC2CC2)cc1 | > 25 µM
O=C(CC(Cl)=C(Cl)Cl)c1ccccc1 | 70.6 µM

Next item in the queue.
Request: Checklist item: TGI tested on HCT-15 colon, entry Cc1nn(C)c(COc2ccc(N3CCN(S(=O)(=O)N(C)C)CC3)cc2)c1-c1cccc2c(CCCOc3cccc4ccccc34)c(C(=O)O)n(CCN3CCOCC3)c12 , value?
Result: 22.9 µM

----------
Examples of molecules with documented TGI follow.
- System: OVCAR-5 ovarian
- test.description: NCI tumour cell line growth inhibition, 48 h

Recorded results for 2 molecules are shown here.
O=c1c(O)c(-c2ccc(O)c(O)c2)oc2cc(O)cc(O)c12 | > 100 µM
Cc1cnc2[nH]c(-c3ccc4ccccc4c3)cc(=O)c2c1 | > 100 µM

Request: Need TGI, item Cc1[nH]c(=O)nc(NNCc2ccc(Cl)cc2)c1C(=O)Nc1ccc(Cl)cc1
Result: > 100 µM

Request: Need TGI, item CN(Cc1cnc2c(N)nc(N)nc2n1)c1ccc(Cl)cc1
Result: > 100 µM

----------
Examples of molecules with documented TGI follow.
- System: IGROV1 ovarian
- test.description: NCI tumour cell line growth inhibition, 48 h
All answers are understood in µM, so give the number only.

COc1cc(OC)c2[nH]c3c(O)c(-c4c(C)cc5c([nH]c6c(OC)cc(OC)cc65)c4O)c(C)cc3c2c1 | 13.7
Cc1nn(-c2ccc([N+](=O)[O-])cc2)c2ncnc(N/N=C/c3ccccc3O)c12 | 4.31
CN(C)CC1CCC2=C(C1=O)C(c1ccc(Cl)c(Cl)c1)C1=C(CCC(CN(C)C)C1=O)O2 (centres undefined) | 8.97

Next item in the queue.
Request: Checklist item: TGI tested on IGROV1 ovarian, entry Nc1ncnc2c1c(-c1ccc(Oc3ccccc3)cc1)nn2C[C@@H]1SSC[C@H]1O , value?
Result: 4.2

----------
- Test system: NCI-H226 lung
- test.description: NCI tumour cell line growth inhibition, 48 h
property: TGI

CC(=O)N(C(C)=O)c1cc2c3c(c1)CCCN3CCC2 | > 10 µM
CC1=C(C(=O)N[C@@H](CC(C)C)C(=O)O)N2C(=O)[C@@H](NC(=O)C(N)c3ccccc3)[C@H]2SC1 (stereo partly specified) | > 100 µM
CC(C)Oc1c(-c2ccc(F)cc2)c(O)c2c3c1oc(=O)n3C=CC2C (stereo unspecified) | 26.9 µM
OC1CSc2nc3ccccc3n2C1 (stereo unspecified) | > 100 µM
Cc1[nH]c(=O)nc(Nc2ccc(Cl)cc2)c1C(=O)N1CCN(CCO)CC1 | > 100 µM

Request: Checklist item: TGI tested on NCI-H226 lung, entry COc1cc(OC)c(C(=O)/C=C/c2cccc(C#N)c2)c(OC)c1 , value?
Result: 4.56 µM

Request: Checklist item: TGI tested on NCI-H226 lung, entry COc1ccc(CC(=O)c2ccc(O)cc2O)cc1 , value?
Result: > 100 µM

Request: Checklist item: TGI tested on NCI-H226 lung, entry BrCC[N+]12CC[N+](CCBr)(CC1)C2 , value?
Result: > 100 µM

Request: Checklist item: TGI tested on NCI-H226 lung, entry CNc1nc(C(N)=O)c(N)s1 , value?
Result: > 100 µM

Request: Checklist item: TGI tested on NCI-H226 lung, entry CCOc1cc2c(c(OCC)c1O)CC[C@@H]1[C@@H]2CC[C@]2(C)[C@@H](O)CC[C@@H]12 , value?
Result: > 100 µM

Request: Checklist item: TGI tested on NCI-H226 lung, entry Cc1ccc(C(=O)NC2CCC2)cc1-c1ccc(C(=O)NCC2CC2)cc1 , value?
Result: > 25 µM

Request: Checklist item: TGI tested on NCI-H226 lung, entry C#CC1(O)CCCCCCCCC2(CCCCCCCC1)OCCO2 , value?
Result: 34 µM
